- Experimental protocol: FIG. 10
Counter-ions that a name gives are not always drawn. Peptide text beside a SMILES is read from it. * marks the point of attachment. For = O=C*
Items are presented alongside their recorded After 4 weeks @ 40°C | Aspartimide (area%).

Here is how some molecules turned out for After 4 weeks @ 40°C | Aspartimide (area%).
input: Value lookup for After 4 weeks @ 40°C | Aspartimide (area%); key = CSCC[C@H](NC=O)C(=O)N[C@@H](CC(=O)O)C(=O)NCC(=O)N[C@@H](CS)C(=O)N[C@@H](CCC(=O)O)C(=O)N[C@@H](CC(C)C)C(=O)O [Na Tri salt] (For-MDGCEL-OH)
output: 0,30 area%

input: Value lookup for After 4 weeks @ 40°C | Aspartimide (area%); key = CSCC[C@H](NC=O)C(=O)N[C@@H](CC(=O)O)C(=O)NCC(=O)N[C@@H](CS)C(=O)N[C@@H](CCC(=O)O)C(=O)N[C@@H](CC(C)C)C(=O)O [TRO Tri salt] (For-MDGCEL-OH)
output: 11,40 area%

input: Value lookup for After 4 weeks @ 40°C | Aspartimide (area%); key = CSCC[C@H](NC=O)C(=O)N[C@@H](CC(=O)O)C(=O)NCC(=O)N[C@@H](CS)C(=O)N[C@@H](CCC(=O)O)C(=O)N[C@@H](CC(C)C)C(=O)O [NH3 Di salt] (For-MDGCEL-OH)
output: 5,52 area%

input: Value lookup for After 4 weeks @ 40°C | Aspartimide (area%); key = CSCC[C@H](NC=O)C(=O)N[C@@H](CC(=O)O)C(=O)NCC(=O)N[C@@H](CS)C(=O)N[C@@H](CCC(=O)O)C(=O)N[C@@H](CC(C)C)C(=O)O [Foxy-5 free acid] (For-MDGCEL-OH)
output: 0,80 area%

The record that follows has no After 4 weeks @ 40°C | Aspartimide (area%) shown yet.
input: Value lookup for After 4 weeks @ 40°C | Aspartimide (area%); key = CSCC[C@H](NC=O)C(=O)N[C@@H](CC(=O)O)C(=O)NCC(=O)N[C@@H](CS)C(=O)N[C@@H](CCC(=O)O)C(=O)N[C@@H](CC(C)C)C(=O)O [NH3 Tri salt] (For-MDGCEL-OH)
output: 3,88 area%

* * *

- Experimental protocol: FIG. 10
- Protocol: Table printed on a drawing sheet, FIG. 10 The patent's description of the figure: FIG. 10 First reader's note: Storage stability of Foxy-5 free acid and its salts shown as HPLC purity and impurity levels (Ala, aspartimide, dimer) initially and after 2 and 4 weeks at 40°C; decimal commas as printed.
Where a name gives a salt, the structure may show the parent alone. Peptide text beside a SMILES is read from it. * marks the point of attachment. For = O=C*
Measured parameter: After 2 weeks @ 40°C | HPLC purity (area%)

input: Value lookup for After 2 weeks @ 40°C | HPLC purity (area%); key = CSCC[C@H](NC=O)C(=O)N[C@@H](CC(=O)O)C(=O)NCC(=O)N[C@@H](CS)C(=O)N[C@@H](CCC(=O)O)C(=O)N[C@@H](CC(C)C)C(=O)O [TRO Tri salt] (For-MDGCEL-OH)
output: 87,27 area%

input: Value lookup for After 2 weeks @ 40°C | HPLC purity (area%); key = CSCC[C@H](NC=O)C(=O)N[C@@H](CC(=O)O)C(=O)NCC(=O)N[C@@H](CS)C(=O)N[C@@H](CCC(=O)O)C(=O)N[C@@H](CC(C)C)C(=O)O [NMG Tri salt] (For-MDGCEL-OH)
output: 95,97 area%

input: Value lookup for After 2 weeks @ 40°C | HPLC purity (area%); key = CSCC[C@H](NC=O)C(=O)N[C@@H](CC(=O)O)C(=O)NCC(=O)N[C@@H](CS)C(=O)N[C@@H](CCC(=O)O)C(=O)N[C@@H](CC(C)C)C(=O)O [HIS Di salt] (For-MDGCEL-OH)
output: 97,40 area%

input: Value lookup for After 2 weeks @ 40°C | HPLC purity (area%); key = CSCC[C@H](NC=O)C(=O)N[C@@H](CC(=O)O)C(=O)NCC(=O)N[C@@H](CS)C(=O)N[C@@H](CCC(=O)O)C(=O)N[C@@H](CC(C)C)C(=O)O [Foxy-5 free acid] (For-MDGCEL-OH)
output: 98,40 area%

The record that follows has no After 2 weeks @ 40°C | HPLC purity (area%) shown yet.
input: Value lookup for After 2 weeks @ 40°C | HPLC purity (area%); key = CSCC[C@H](NC=O)C(=O)N[C@@H](CC(=O)O)C(=O)NCC(=O)N[C@@H](CS)C(=O)N[C@@H](CCC(=O)O)C(=O)N[C@@H](CC(C)C)C(=O)O [LYS Di salt] (For-MDGCEL-OH)
output: 97,06 area%

FYI, the data here is from patent US20250325485A1.
